Sourced from patent US20220025010A1

# target-entity: T1, human GIP receptor (human, UniProt P48546 22-466)
# T1 sequence (looked up): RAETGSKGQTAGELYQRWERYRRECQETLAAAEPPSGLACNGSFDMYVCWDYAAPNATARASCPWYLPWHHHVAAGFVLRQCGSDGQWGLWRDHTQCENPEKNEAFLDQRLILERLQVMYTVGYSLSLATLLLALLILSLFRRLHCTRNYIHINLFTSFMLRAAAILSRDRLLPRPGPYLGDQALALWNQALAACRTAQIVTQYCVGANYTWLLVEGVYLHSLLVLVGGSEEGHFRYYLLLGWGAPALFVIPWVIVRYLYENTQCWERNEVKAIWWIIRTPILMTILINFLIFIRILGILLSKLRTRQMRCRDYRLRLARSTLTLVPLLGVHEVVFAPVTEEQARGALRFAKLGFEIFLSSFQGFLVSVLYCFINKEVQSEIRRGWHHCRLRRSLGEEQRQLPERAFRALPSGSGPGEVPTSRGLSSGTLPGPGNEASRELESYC
# test-protocol: cell-based or functional assay
*1 amine or outer side, *2 acyl side, *3 side chain or, on linkers, in order; H or OH if unused. Where no end group is shown, it is not given here. Side-chain parts run from the residue outwards. [ ]: non-standard residue; d: D form. The star is where a group is joined. C18 diacid = O=C(O)CCCCCCCCCCCCCCCCC(=O)*; C16 diacid = O=C(O)CCCCCCCCCCCCCCC(=O)*; γGlu = O=C(O)[C@H](CCC(=O)[*:2])N[*:1]; pGlu = O=C1CC[C@@H](C(=O)O)N1; AEEA = NCCOCCOCC(=O)O
Provide the recorded CisBio cAMP antagonism pIC50 for the entries that follow.
One number for each entry.

EGTFISDYSIAMDRIK([AEEA-AEEA-γGlu-C18 diacid])QQDFVNWLLAQR-NH2 (not fully specified (residue 1)) [AT377] = 7.7
EGTFISDYSIAMDRIK([AEEA-AEEA-AEEA-γGlu-C16 diacid])QQDFVNWLLAQR-NH2 (not fully specified (residue 1)) [AT375] = 7.6
EGTFISDYSIAMDRIK([AEEA-γGlu-C16 diacid])QQDFVNWLLAQR-NH2 (not fully specified (residue 1)) [AT373] = 7.9

Can you give me CisBio cAMP antagonism pIC50 for all of these, one by one?
1. [pGlu]GTFISDYSIAMDRIK(C16 diacid)QQDFVNWLLAQR-NH2 [AT390]
2. EGTFISDYSIAMDRIK([AEEA-AEEA-AEEA-γGlu-C18 diacid])QQDFVNWLLAQR-NH2 (not fully specified (residue 1)) [AT378]
3. [pGlu]GTFISDYSIAMDRIK([AEEA-AEEA-AEEA-γGlu-C16 diacid])QQDFVNWLLAQR-NH2 [AT380]
4. [pGlu]GTFISDYSIAMDRIK(C18 diacid)QQDFVNWLLAQR-NH2 [AT391]
5. EGTFISDYSIAMDRIK([AEEA-γGlu-C18 diacid])QQDFVNWLLAQR-NH2 (not fully specified (residue 1)) [AT376]
6. [pGlu]GTFISDYSIAMDRIK([AEEA-AEEA-γGlu-C18 diacid])QQDFVNWLLAQR-NH2 [AT381]
7. [pGlu]GTFISDYSIAMDRIK([AEEA-AEEA-AEEA-γGlu-C18 diacid])QQDFVNWLLAQR-NH2 [AT382]

Result ::
1: 7.8; 2: 7.9; 3: 7.1; 4: 6.6; 5: 8.2; 6: 7.9; 7: 7.6
